Target: Transient receptor potential cation channel subfamily V member 1 (Homo sapiens, UniProt Q8NER1)
Sequence (Q8NER1 whole entry): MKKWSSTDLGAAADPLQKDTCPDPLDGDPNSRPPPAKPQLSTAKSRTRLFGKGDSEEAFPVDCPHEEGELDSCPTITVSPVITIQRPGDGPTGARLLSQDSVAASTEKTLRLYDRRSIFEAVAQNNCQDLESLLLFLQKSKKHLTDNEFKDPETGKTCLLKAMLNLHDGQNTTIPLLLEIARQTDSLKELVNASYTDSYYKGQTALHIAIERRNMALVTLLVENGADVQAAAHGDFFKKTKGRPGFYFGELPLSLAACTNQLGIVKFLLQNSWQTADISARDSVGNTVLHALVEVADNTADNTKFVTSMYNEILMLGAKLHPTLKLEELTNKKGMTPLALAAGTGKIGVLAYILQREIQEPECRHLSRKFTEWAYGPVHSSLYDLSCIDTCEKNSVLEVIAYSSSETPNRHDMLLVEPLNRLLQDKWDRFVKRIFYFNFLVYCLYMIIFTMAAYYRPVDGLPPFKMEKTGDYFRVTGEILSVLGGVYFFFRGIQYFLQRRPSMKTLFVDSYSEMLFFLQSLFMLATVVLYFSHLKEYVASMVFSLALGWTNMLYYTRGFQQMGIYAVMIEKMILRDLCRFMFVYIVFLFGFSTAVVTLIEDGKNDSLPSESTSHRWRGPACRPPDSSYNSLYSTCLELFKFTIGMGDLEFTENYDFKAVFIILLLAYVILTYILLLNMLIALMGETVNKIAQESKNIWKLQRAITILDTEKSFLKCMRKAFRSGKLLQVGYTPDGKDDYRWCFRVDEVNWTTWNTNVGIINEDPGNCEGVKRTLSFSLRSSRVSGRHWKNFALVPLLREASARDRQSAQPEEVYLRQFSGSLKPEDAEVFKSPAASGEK
Assay: Agonist activity at human TRPV1 receptor expressed in HEK293 cells assessed as intracellular calcium stimulation
Assignment: determine reported EC50 for the given molecules.
Return type: number; implicit unit µM.

Fill in: EC50 of CC(C)[C@@H]1CC[C@@H](C)C[C@H]1NC(=O)Oc1ccc(Cl)cc1 is ___
42.8

Requested read-out: EC50. Entry: COc1ccc(OC(=O)N[C@@H]2C[C@H](C)CC[C@H]2C(C)C)cc1
53.8

What does the data say about its EC50? Entry: CC(C)[C@@H]1CC[C@@H](C)C[C@H]1NC(=O)c1ccc(Cl)cc1
4.1

----------
Please go through the items and note down their Efficacy.
Target: Transient receptor potential cation channel subfamily A member 1 (Rattus norvegicus)
Test: Agonist activity at rat TRPA1 receptor expressed in HEK293 cells assessed as intracellular calcium stimulation relative to isothiocyanate
Format: functional, cell-based

So what's the measured Efficacy for this one? Cc1ccc(C(=O)N[C@@H]2C[C@H](C)CC[C@H]2C(C)C)cc1
< 10%

I have this molecule here, CC(C)[C@@H]1CC[C@@H](C)C[C@H]1NC(=O)c1cccc(Cl)c1 , and I need its recorded Efficacy.
< 10%

Recorded Efficacy of CC(C)[C@@H]1CC[C@@H](C)C[C@H]1NC(=O)NCCc1c[nH]c2ccc(O)cc12 , please.
< 10%

----------
Target: Transient receptor potential cation channel subfamily M member 8 (Rattus norvegicus, UniProt Q8R455)
Sequence (Q8R455 whole entry): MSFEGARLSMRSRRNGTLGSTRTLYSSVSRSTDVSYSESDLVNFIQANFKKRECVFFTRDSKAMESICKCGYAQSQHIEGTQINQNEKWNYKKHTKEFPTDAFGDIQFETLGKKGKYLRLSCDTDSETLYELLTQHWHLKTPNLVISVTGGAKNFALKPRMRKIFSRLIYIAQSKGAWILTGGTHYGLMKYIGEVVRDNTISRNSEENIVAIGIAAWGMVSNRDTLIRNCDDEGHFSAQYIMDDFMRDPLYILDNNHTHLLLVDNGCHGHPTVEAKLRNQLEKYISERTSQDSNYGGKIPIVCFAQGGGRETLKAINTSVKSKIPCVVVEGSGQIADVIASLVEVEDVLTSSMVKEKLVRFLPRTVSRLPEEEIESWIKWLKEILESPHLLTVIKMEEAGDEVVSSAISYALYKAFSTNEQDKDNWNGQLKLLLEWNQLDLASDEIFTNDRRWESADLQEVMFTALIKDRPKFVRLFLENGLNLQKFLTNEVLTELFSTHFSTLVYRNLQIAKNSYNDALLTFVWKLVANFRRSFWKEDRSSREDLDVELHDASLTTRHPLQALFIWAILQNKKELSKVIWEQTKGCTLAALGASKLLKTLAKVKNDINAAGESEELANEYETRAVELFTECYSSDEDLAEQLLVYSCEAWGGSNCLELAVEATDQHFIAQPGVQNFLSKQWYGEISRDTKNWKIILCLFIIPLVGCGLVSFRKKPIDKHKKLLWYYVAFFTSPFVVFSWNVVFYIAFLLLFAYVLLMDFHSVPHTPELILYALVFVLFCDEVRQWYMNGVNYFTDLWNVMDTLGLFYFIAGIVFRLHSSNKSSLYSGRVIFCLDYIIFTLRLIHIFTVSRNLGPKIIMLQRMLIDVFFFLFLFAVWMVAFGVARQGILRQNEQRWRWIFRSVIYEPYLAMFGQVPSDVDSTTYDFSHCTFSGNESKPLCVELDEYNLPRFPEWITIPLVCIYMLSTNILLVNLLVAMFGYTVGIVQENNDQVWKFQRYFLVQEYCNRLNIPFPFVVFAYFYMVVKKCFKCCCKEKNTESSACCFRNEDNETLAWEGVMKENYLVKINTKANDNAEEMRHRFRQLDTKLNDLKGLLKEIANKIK
Assay: Antagonist activity at rat TRMP8 receptor expressed in HEK293 cells assessed as menthol-induced calcium elevation
Format: functional, cell-based
Please use True for IC50 under 700 nM and False for everything else, ties included.

IC50 strictly < 700 nM for this compound? CC(C)[C@@H]1CC[C@@H](C)C[C@H]1NC(=O)NCCc1c[nH]c2ccc(O)cc12
False

In plain terms, does CC(C)[C@@H]1CC[C@@H](C)C[C@H]1NC(=O)NC12CC3CC(CC(C3)C1)C2 come in under 700 nM for IC50?
False

API: query returns whether the compound falls strictly under 700 nM in IC50. Query: CC(C)[C@@H]1CC[C@@H](C)C[C@H]1NC(=O)Oc1cccc(-c2ccccc2)c1
True

Quick check: IC50 of COc1ccc(OC(=O)N[C@@H]2C[C@H](C)CC[C@H]2C(C)C)cc1 under 700 nM?
False

Given the entry COc1cc(CNC(=O)N[C@@H]2C[C@H](C)CC[C@H]2C(C)C)ccc1O , would its reported IC50 be below 700 nM?
False

Determine whether this compound shows IC50 lower than 700 nM (ties excluded): CC(C)[C@@H]1CC[C@@H](C)C[C@H]1NC(=O)Oc1ccc(Cl)cc1
False

Does CC(C)[C@@H]1CC[C@@H](C)C[C@H]1NC(=O)c1ccc(C(C)(C)C)cc1 have IC50 strictly under 700 nM?
False

Lab note: IC50 threshold 700 nM. Does this compound come in strictly under it? Cc1ccc(OC(=O)N[C@@H]2C[C@H](C)CC[C@H]2C(C)C)cc1
False

Answer whether the compound Cc1ccc(C(=O)N[C@@H]2C[C@H](C)CC[C@H]2C(C)C)cc1 has IC50 strictly less than 700 nM
False

Is it true that IC50 reported for CC(C)[C@@H]1CC[C@@H](C)C[C@H]1NC(=O)Oc1ccc(C(C)(C)C)cc1 is less than 700 nM?
True

Bench note: check whether CC(C)[C@@H]1CC[C@@H](C)C[C@H]1NC(=O)Oc1cccc(C(C)(C)C)c1 shows IC50 below 700 nM
False

Field: below-cutoff. Rule: recorded IC50 strictly less than 700 nM. Subject: CCCCCCCC/C=C\CCCCCCCC(=O)N[C@@H]1C[C@H](C)CC[C@H]1C(C)C
False

Hello, is IC50 of the following compound strictly smaller than 700 nM? CC(C)[C@@H]1CC[C@@H](C)C[C@H]1NC(=O)Oc1cccc(C(F)(F)F)c1
True

Consider CC(C)[C@@H]1CC[C@@H](C)C[C@H]1NC(=O)CCCCCCc1ccccc1 . Does its IC50 lie strictly below 700 nM?
True
